Biological target: Prostaglandin G/H synthase 1 (Homo sapiens)
Sequence (P23219 whole entry): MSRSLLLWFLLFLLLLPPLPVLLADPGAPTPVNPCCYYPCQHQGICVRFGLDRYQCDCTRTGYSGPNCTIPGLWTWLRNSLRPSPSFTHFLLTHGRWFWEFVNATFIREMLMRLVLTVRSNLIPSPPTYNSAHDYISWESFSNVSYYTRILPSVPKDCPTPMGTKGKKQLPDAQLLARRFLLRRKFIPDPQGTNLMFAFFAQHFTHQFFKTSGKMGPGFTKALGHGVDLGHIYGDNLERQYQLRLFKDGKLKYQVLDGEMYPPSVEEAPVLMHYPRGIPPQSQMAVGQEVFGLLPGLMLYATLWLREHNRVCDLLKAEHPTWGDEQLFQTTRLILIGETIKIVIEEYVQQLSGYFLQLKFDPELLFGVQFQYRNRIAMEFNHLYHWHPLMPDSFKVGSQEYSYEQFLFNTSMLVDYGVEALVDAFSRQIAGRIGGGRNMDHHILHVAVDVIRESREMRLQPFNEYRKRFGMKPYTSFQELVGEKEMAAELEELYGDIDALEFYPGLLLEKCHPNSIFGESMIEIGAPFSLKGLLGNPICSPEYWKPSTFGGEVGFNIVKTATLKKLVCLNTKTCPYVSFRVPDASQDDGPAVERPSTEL
Test: Inhibition of COX1 in human whole blood assessed as effect on A23187-induced thromboxane B2 production at 1 uM relative to control; values are per cent of control
Simple rule here: residual activity less than 80% is Criterion met, otherwise Criterion not met.

compound	experimental-system	classification
COc1ccc2c(c1)c(CC(=O)N(OC(C)=O)C(C)=O)c(C)n2C(=O)c1ccc(Cl)cc1	Prostaglandin G/H synthase 1 (Homo sapiens)	Criterion met
COc1ccc2c(c1)c(CC(=O)NO)c(C)n2C(=O)c1ccc(Cl)cc1 [OXAMETACIN]	Prostaglandin G/H synthase 1 (Homo sapiens)	Criterion not met
COc1ccc2c(c1)c(CCOC(=O)NCCCO[N+](=O)[O-])c(C)n2C(=O)c1ccc(Cl)cc1	Prostaglandin G/H synthase 1 (Homo sapiens)	Criterion not met
COc1cc2c(CC(=O)NCCCO[N+](=O)[O-])c(C)n(C(=O)c3ccc(Cl)cc3)c2cc1Cl	Prostaglandin G/H synthase 1 (Homo sapiens)	Criterion not met
COc1ccc2c(c1)c(CC(=O)NOC(C)=O)c(C)n2C(=O)c1ccc(Cl)cc1	Prostaglandin G/H synthase 1 (Homo sapiens)	Criterion met
Cc1c(CC(=O)O)c2cc(O)ccc2n1C(=O)c1ccc(Cl)cc1	Prostaglandin G/H synthase 1 (Homo sapiens)	Criterion not met
COc1ccc2c(c1)c(CCNS(=O)(=O)CCCO[N+](=O)[O-])c(C)n2C(=O)c1ccc(Cl)cc1	Prostaglandin G/H synthase 1 (Homo sapiens)	Criterion not met
COc1ccc2c(c1)c(CC(=O)NCCCCO)c(C)n2C(=O)c1ccc(Cl)cc1	Prostaglandin G/H synthase 1 (Homo sapiens)	Criterion met
COc1ccc2c(c1)c(CC(=O)NCCCO)c(C)n2C(=O)c1ccc(Cl)cc1	Prostaglandin G/H synthase 1 (Homo sapiens)	Criterion not met
COc1ccc2c(c1)c(CC(=O)NCCCO[N+](=O)[O-])c(C)n2C(=O)c1ccc(Cl)cc1	Prostaglandin G/H synthase 1 (Homo sapiens)	Criterion met
Cc1c(CC(=O)NCCCO[N+](=O)[O-])c2cc(OS(N)(=O)=O)ccc2n1C(=O)c1ccc(Cl)cc1	Prostaglandin G/H synthase 1 (Homo sapiens)	Criterion not met
COc1ccc2c(c1)c(CCNS(=O)(=O)CCCO)c(C)n2C(=O)c1ccc(Cl)cc1	Prostaglandin G/H synthase 1 (Homo sapiens)	Criterion met
COc1cc2c(CC(=O)O)c(C)n(C(=O)c3ccc(Cl)cc3)c2cc1Cl	Prostaglandin G/H synthase 1 (Homo sapiens)	Criterion met

###

Target: Prostaglandin G/H synthase 1 (Homo sapiens)
Assay: Inhibition of COX1 in human whole blood assessed as effect on A23187-induced thromboxane B2 production at 100 uM relative to control; values are per cent of control
Lab note: compare residual activity against 20%. Equal or greater, write Fulfilled. Smaller, write Not fulfilled.

smiles-entry	classification
Cc1c(CC(=O)O)c2cc(O)ccc2n1C(=O)c1ccc(Cl)cc1	Not fulfilled
COc1ccc2c(c1)c(CC(=O)NCCCO[N+](=O)[O-])c(C)n2Cc1ccc(S(C)(=O)=O)cc1	Fulfilled
COc1ccc2c(c1)c(CCO)c(C)n2CC1CCCCC1	Fulfilled
COc1ccc2c(c1)c(CCNS(=O)(=O)c1ccc(CO[N+](=O)[O-])cc1)c(C)n2C(=O)c1ccc(Cl)cc1	Not fulfilled
COc1ccc2c(c1Cl)c(CC(=O)OCc1ccccc1)c(C)n2C(=O)c1ccc(Cl)cc1	Fulfilled
COc1cc2c(CC(=O)O)c(C)n(C(=O)c3ccc(Cl)cc3)c2cc1Cl	Not fulfilled
COc1ccc2c(c1)c(CCNC(=O)NCCCO[N+](=O)[O-])c(C)n2C(=O)c1ccc(Cl)cc1	Not fulfilled
COc1ccc2c(c1)c(CC(=O)NCCCO)c(C)n2C(=O)c1ccc(Cl)cc1	Not fulfilled
COc1ccc2c(c1)c(CC(=O)O)c(C)n2CC1CCCCC1	Fulfilled

Values compiled from ChEMBL document CHEMBL1138326.
